# System: HEK-293T
# Procedure summary: Multiplex assay against HEK293T;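 also: share of the cells with healthy nuclei that show this phenotype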
# Type: toxicity, cell-based
# Condition: human, 12 h, 1 µM, compound concentration 1 uM, replicate 1
Recorded metric: Population Tubulin-Different-Phenotype (%)
Quick note: give the figure in %, leave out the unit.

Query: GET /values?readout=Population Tubulin-Different-Phenotype (%)&item= Cl.Oc1ccc2c3c1O[C@H]1c4[nH]c5c(c4C[C@@]4(O)[C@@H](C2)N(CC2CC2)CC[C@]314)C[C@@]1(O)[C@H]2Cc3ccc(O)c4c3[C@@]1(CCN2CC1CC1)[C@H]5O4
Reply: 46

Query: Next record, please: CCN1CCN(Cc2ccc(Nc3ncc(F)c(-c4cc(F)c5nc(C)n(C(C)C)c5c4)n3)nc2)CC1.CS(=O)(=O)O
Reply: 92

Query: Next record, please: O=C(Nc1cccnn1)N1CCC(=Cc2cccc(Oc3ccc(C(F)(F)F)cn3)c2)CC1
Reply: 29

Query: Next record, please: CCCS(=O)(=O)Nc1ccc(F)c(C(=O)c2c[nH]c3ncc(Cl)cc23)c1F
Reply: 8

Query: Next record, please: CN(C)C(=O)C(CCN1CCC(O)(c2ccc(Cl)cc2)CC1)(c1ccccc1)c1ccccc1.Cl [LOPERAMIDE HYDROCHLORIDE]
Reply: 83

Query: Next record, please: Cc1cn(-c2cc(NC(=O)c3ccc(C)c(Nc4nccc(-c5cccnc5)n4)c3)cc(C(F)(F)F)c2)cn1
Reply: 98

Query: Next record, please: COc1cccc2cc(-c3nc([C@H]4CC[C@H](C(=O)O)CC4)n4ncnc(N)c34)[nH]c12
Reply: 5

----------
# Tested on: Fibroblast
# Procedure summary: Multiplex assay against human fibroblast
# Format: toxicity, cell-based
# Condition: 24 h, 1 µM, compound concentration 1 uM, replicate 1
Some molecules, each annotated with its measured Population Mitotic Cells (%).
Quick note: give the figure in %, leave out the unit.

Example cases with answers are listed next.
COC(=N)c1nc2ccc3ncnc(Nc4ccc(OC)cc4F)c3c2s1 | 22
NC(=O)c1cccc(-c2cc(Nc3ccc(OC(F)(F)F)cc3)ncn2)c1 | 39
COc1ccc(-c2ccc3c(N4CCOCC4)nc(N4C[C@@H](C)O[C@@H](C)C4)nc3n2)cc1CO | 32

Query: GET /values?readout=Population Mitotic Cells (%)&item= Cl.Oc1ccc2c3c1O[C@H]1c4[nH]c5c(c4C[C@@]4(O)[C@@H](C2)N(CC2CC2)CC[C@]314)C[C@@]1(O)[C@H]2Cc3ccc(O)c4c3[C@@]1(CCN2CC1CC1)[C@H]5O4
Reply: 33

----------
# Test system: Fibroblast
# Procedure summary: Multiplex assay against human fibroblast
# Assay type: toxicity, cell-based
# Condition: 48 h, 1 µM, compound concentration 1 uM, replicate 1
Recorded metric: Population Membrane Permeable-Phenotype (%)
Quick note: give the figure in %, leave out the unit.

Example cases with answers are listed next.
O=C(Cc1ccc(-c2ccc(OCCN3CCOCC3)cc2)cn1)NCc1ccccc1 | 31
CCOC(=O)c1c(C)[nH]c2ccc3c(c12)CN1CCc2cc(OC)ccc2C1O3 (stereo not drawn) | 9
O=C1N/C(=N/c2ccccc2F)S/C1=C\c1ccc(C(=O)O)cc1 | 20
CNc1cc(Oc2cc(C(=O)Nc3cc(N4CCN(C)CC4)cc(C(F)(F)F)c3)ccc2C)ncn1 | 12

Let us move to another entry and its Population Membrane Permeable-Phenotype (%).
Query: GET /values?readout=Population Membrane Permeable-Phenotype (%)&item= CCCS(=O)(=O)c1nc(NC2CC2)cc(-c2ccc3c(ccn3C3CC(C)(C)NC(C)(C)C3)c2)n1
Reply: 16

Data credit: ChEMBL document CHEMBL4689842
